targetDesc: T1, NTF2 domain of G3BP2 (human, UniProt Q9UN86 11-133)
T1 chain: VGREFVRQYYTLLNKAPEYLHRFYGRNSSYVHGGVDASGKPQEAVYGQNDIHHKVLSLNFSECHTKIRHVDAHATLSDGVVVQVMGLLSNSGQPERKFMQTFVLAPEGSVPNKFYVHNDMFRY
experimentalDetails: FP
endpointName: pKd
In simple prose, pKd is minus the logarithm base ten of a concentration in moles per litre.

binder | pKd
APRITFGGPTDSTDNN [SARS-CoV N peptide with the ΦxFG motif, synthetic] | 5.77
APRITFGGPSDSTGSN [SARS-CoV-2 N peptide with the ΦxFG motif, synthetic] | 5.55

// next item, pKd requested
[ask] Would you kindly share the measured pKd for APRAVSFADNNDITNT [MERS-CoV N peptide corresponding to the ΦxFG peptide, synthetic] ?
[reply] 4.59
